Values compiled from patent US10167507B2.

Tested on: obesity and metabolic diseases-related genes in visceral fat tissue
ASSAY_DETAILS: RT-PCR of obesity and metabolic diseases-related genes, visceral fat tissue
Format: in vivo, mouse
CONDITION: odor component-supplemented group to the HFD control group
# PPARγ2 gene expression, decrease (change rate) values compiled below
// note: answer is a bare numeric in % decrease

CC(=O)O[C@]1(C)CC[C@@]23C[C@@H]1C(C)(C)[C@@H]2CC[C@H]3C [cedryl acetate]: 25
C/C=C1/[C@H](O[C@@H]2O[C@H](CO)[C@@H](O)[C@H](O)[C@H]2O)OC=C(C(=O)OC)[C@H]1CC(=O)OCCc1ccc(O)c(O)c1 [oleuropein]: 35
OCc1c[nH]c2ccccc12 [indol-3-carbinol]: 20

Read the next record carefully.
Just so you know, measured PPARγ2 gene expression, decrease (change rate) for O=C(/C=C/C=C/c1ccc2c(c1)OCO2)N1CCCCC1 [piperine] came out at 30
